ASSAYED_SYSTEM: human GLP-1 receptor (human, UniProt P43220 24-463)
EXPERIMENT: cell-based or functional assay
Where no end group is shown, it is not given here. [ ]: non-standard residue; d: D form. Bip(2'-Et-4'-OMe) = CCc1cc(OC)ccc1-c1ccc(C[C@H](N)C(=O)O)cc1; αMePhe(2,6-F2) = C[C@](N)(Cc1c(F)cccc1F)C(=O)O; αMePhe(2-F) = C[C@](N)(Cc1ccccc1F)C(=O)O; αMeBip(OMe) = alpha-methylated Bip(OMe); hhPhe = N[C@@H](CCCc1ccccc1)C(=O)O; αMeAPPA = not defined here; Aib = CC(C)(N)C(=O)O
PARAMETER: cAMP release, % activity with respect to control, at 10 µM

VH[Aib]EGT[αMePhe(2,6-F2)]TSD[Bip(2'-Et-4'-OMe)][αMeAPPA] (not fully specified (C-terminus); printed as VH-Aib-EGT-(αMe-2,6-diFPhe)-TSD-Bip(OMe)-(αMe-APPA); reading uncertain) [Seq. ID. No. 105] : 99 % of control
VHAQGT[αMePhe(2-F)]TSD[αMeBip(OMe)][hhPhe] (not fully specified (C-terminus); printed as VHAQGT-(αMe-2FPhe)-TSD-(αMe-Bip(OMe))-(APPA)) [Seq. ID. No. 18] : 99 % of control
